Provide the reported pEC50 of each item.
System tested: T1, human CD228 (R&D Systems Custom02; Lot DCWR021505A) (human, UniProt P08582 20-709, limits assumed)
T1 construct: Bought custom protein coated on ELISA plates; also called CD228 protein; melanotransferrin
T1 sequence (looked up): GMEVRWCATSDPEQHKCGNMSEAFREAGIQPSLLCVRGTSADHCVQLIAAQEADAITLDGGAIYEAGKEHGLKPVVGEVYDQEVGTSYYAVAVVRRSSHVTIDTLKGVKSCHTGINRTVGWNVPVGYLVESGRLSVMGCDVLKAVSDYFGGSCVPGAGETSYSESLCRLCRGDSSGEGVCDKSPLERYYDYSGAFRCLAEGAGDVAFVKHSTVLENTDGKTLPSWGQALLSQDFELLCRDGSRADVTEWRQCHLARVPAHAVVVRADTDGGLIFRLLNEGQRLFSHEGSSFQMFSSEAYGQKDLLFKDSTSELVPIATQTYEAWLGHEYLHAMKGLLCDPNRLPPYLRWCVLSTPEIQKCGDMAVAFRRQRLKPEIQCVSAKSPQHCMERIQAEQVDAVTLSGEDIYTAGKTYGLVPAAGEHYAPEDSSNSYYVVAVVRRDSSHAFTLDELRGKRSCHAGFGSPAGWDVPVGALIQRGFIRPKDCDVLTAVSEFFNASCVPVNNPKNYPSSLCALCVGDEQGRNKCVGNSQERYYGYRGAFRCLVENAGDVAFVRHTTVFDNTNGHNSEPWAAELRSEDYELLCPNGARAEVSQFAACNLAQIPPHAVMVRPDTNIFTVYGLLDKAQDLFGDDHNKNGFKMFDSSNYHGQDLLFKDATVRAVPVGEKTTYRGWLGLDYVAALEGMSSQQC
Measurement notes: ELISA, coated human CD228, pH 5.60
Expect pEC50 as a plain number equal to -log10 of the molar concentration.

I am curious: what pEC50 value has been reported for hL49_3X_Ala (antibody, V domains shown, hL49 triple mutant: all three light chain CDR histidines (two in CDR-L1, one in CDR-L3) changed to alanine) VH: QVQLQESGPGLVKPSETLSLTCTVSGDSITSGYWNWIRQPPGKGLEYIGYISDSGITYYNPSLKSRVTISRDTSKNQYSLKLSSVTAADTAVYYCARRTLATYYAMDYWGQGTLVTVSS VL: DFVMTQSPLSLPVTLGQPASISCRASQSLVASDGNTYLAWYQQRPGQSPRLLIYRVSNRFSGVPDRFSGSGSGTDFTLKISRVEAEDVGVYYCSQSTAVPPTFGQGTKLEIK ?
6.39

// query pEC50 value for entry hL49_27D_Gln (antibody, V domains shown, hL49 variant with the light chain CDR-L1 histidine 27D changed to glutamine) VH: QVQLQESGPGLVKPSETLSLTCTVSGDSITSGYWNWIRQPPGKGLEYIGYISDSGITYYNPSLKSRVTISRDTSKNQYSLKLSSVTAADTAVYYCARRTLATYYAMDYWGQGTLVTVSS VL: DFVMTQSPLSLPVTLGQPASISCRASQSLVQSDGNTYLHWYQQRPGQSPRLLIYRVSNRFSGVPDRFSGSGSGTDFTLKISRVEAEDVGVYYCSQSTHVPPTFGQGTKLEIK
7.76

Would you mind telling me what pEC50 value was observed for hL49_27D_Ala (antibody, V domains shown, hL49 variant with the light chain CDR-L1 histidine 27D changed to alanine) VH: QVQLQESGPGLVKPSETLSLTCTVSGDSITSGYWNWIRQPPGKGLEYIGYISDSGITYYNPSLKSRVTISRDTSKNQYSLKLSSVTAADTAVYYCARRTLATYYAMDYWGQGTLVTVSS VL: DFVMTQSPLSLPVTLGQPASISCRASQSLVASDGNTYLHWYQQRPGQSPRLLIYRVSNRFSGVPDRFSGSGSGTDFTLKISRVEAEDVGVYYCSQSTHVPPTFGQGTKLEIK ?
8.04
